Provenance of the data: patent US20250051277A1

- Format: physicochemical
- condition.notes: DI water, 25° C., 0.5 mM; time 4 h
measure.name: Condition 2 Conversion (%)

INSERT INTO measurements (molecule, measure_name, val) VALUES
  ('COc1ccc([C@@]23CCC(OC(=O)C(c4ccccc4)c4ccccc4)=C[C@@H]2N(C)CC3)cc1OC [Compound 306]', 'Condition 2 Conversion (%)', 0),
  ('COc1ccc([C@@]23CCC(OC(=O)C(C)(C)C)=C[C@@H]2N(C)CC3)cc1OC [Compound 309]', 'Condition 2 Conversion (%)', 0),
  ('COc1ccc([C@@]23CCC(OC(=O)C4CC4)=C[C@@H]2N(C)CC3)cc1OC [Compound 312]', 'Condition 2 Conversion (%)', 0),
  ('COc1ccc([C@@]23CC/C(=N\NC(=O)Nc4ccccc4Cl)C[C@@H]2N(C)CC3)cc1OC [Compound 249]', 'Condition 2 Conversion (%)', 9.23),
  ('COc1ccc([C@@]23CC/C(=N/OC45CC6CC(CC(C6)C4)C5)C[C@@H]2N(C)CC3)cc1OC [Compound 301]', 'Condition 2 Conversion (%)', 0),
  ('COc1ccc([C@@]23CCC(=NNCc4ccccn4)C[C@@H]2N(C)CC3)cc1OC [Compound 369]', 'Condition 2 Conversion (%)', 45),
  ('COc1ccc([C@@]23CCC(=NNC(=O)c4ccc(F)cc4)C[C@@H]2N(C)CC3)cc1OC [Compound 220]', 'Condition 2 Conversion (%)', 88.25);
